All values here come from PubChem BioAssay (NCI).

test system: NCI-H522 lung; test: NCI tumour cell line growth inhibition, 48 h; in the data active = GI50 below about 0.43 µM; inactive = the rest
Outcome codes: 1.0 (active), 0.0 (inactive)

>>> print(df.to_string())
                        structure_as_smiles  class
0           ClCCN(CCCl)c1ccc(CNc2ccccc2)cc1    0.0
1  CCCc1cc(=O)n2c(C(=O)Nc3ccc(Cl)cc3C)c(C(=O)Nc3ccc(F)cc3)sc2n1    0.0
2  CCc1ccc2c(c1)C(=O)c1c-2n(CCCN=[N+]=[N-])c(=O)c2cc([N+](=O)[O-])ccc12    0.0
3                        CCCCCCCCCCNC(=O)CI    1.0
4        O=C1Nc2ccccc2/C1=C1\CCc2cc(O)ccc21    0.0
5         COc1ccc(-c2nccn2-c2ccc(OC)cc2)cc1    0.0
6  C#CCOc1cccc(Nc2ncnc3c(NC(=O)C=C)cccc23)c1    0.0
7  O=C(/C(=C\c1c(-c2ccccc2)[nH]c2ccccc12)S(=O)(=O)c1ccccc1)c1ccccc1    0.0
8  CC1(C)CN=C(NN=C(/C=C/c2ccc(C(F)(F)F)cc2)/C=C/c2ccc(C(F)(F)F)cc2)NC1    0.0
9  N[C@H](CCC(=O)N[C@@H](Cc1c[nH]c2ccccc12)C(=O)O)C(=O)O    0.0

----------
test system: HCC-2998 colon; experiment: NCI tumour cell line growth inhibition, 48 h
Entries and their TGI values follow.

compound	TGI
CCC1=NC(C(F)(F)F)(C(F)(F)F)N=C(N2CCOCC2)O1	> 100 µM
CC(C)=CCC/C(C)=C/COC(C)(C)C1=CCC(C)CC1 (centres undefined) (tested in a mixture with another compound)	> 100 µM
O=C(/C=C/c1ccccc1)c1ccccc1	> 10 µM
Cc1ccccc1C1=[N+]([O-])c2ccc(Cl)cc2C1=O	29.4 µM
Cn1c(=O)nc2n(-c3cc(C(F)(F)F)cc(C(F)(F)F)c3)c3ccccc3nc-2c1=O	> 100 µM
O=C(CN(c1ccccc1)c1ccccc1)N1c2ccccc2C2C=CC=CC21 (centres undefined)	22.7 µM
Clc1ccc(CSCCc2ccncc2)cc1Cl	34.2 µM
O=C(NCc1ccc(Cn2c(=O)sn(-c3ccccc3)c2=O)cc1)OCc1ccc2cccc(O)c2n1	3.51 µM
Cc1cccc(C2=C/C(=C(\SS/C(C(=O)c3ccc(OCC(=O)O)c(Cl)c3Cl)=C3\C=C(c4cccc(C)c4)SS3)C(=O)c3ccc(OCC(=O)O)c(Cl)c3Cl)SS2)c1	> 100 µM
COc1cc2cc(Oc3ccc(NC(=O)c4cc(C(F)(F)F)cc(C(F)(F)F)c4)cc3)c(C)nc2cc1OC	> 50 µM
CC(C)=C1CCC(CN(C)C)C1=O (centres undefined)	33.2 µM
CCN1CCCC(NCc2c3ccccc3c(CNC3CCCN(CC)C3)c3ccccc23)C1 (centres undefined)	27.9 µM
O=C(O)c1cc(-c2ccc3c(O)c(O)ccc3c2)ccc1O	> 75 µM
Nc1ccccc1C(=O)/C=C/c1c(O)ccc2ccccc12	> 100 µM
COc1ccc(-c2cnnn2-c2nonc2-n2cccc2)cc1	2.89 µM
O=C(Nc1cc(Cl)ccc1O)c1ccc(Nc2ccnc(C(F)(F)F)c2)cc1	> 100 µM
COc1ccc(CC2c3c(cc(OC)c(OC)c3OC)CCN2C)cc1OC (centres undefined)	> 100 µM
CC[n+]1[b-](C(C)(C)C)n(/N=C/C(C)(C)C)[b-](C(C)(C)C)[n+]1CC	> 100 µM
c1csc(-c2ccc(-c3cccs3)c3nsnc23)c1	> 100 µM
NNC1=N/C(=C\c2ccco2)C(Cl)=N1	> 100 µM
C=Cc1ccc(C)[n+](C[Si](C)(C)O[Si](C)(C)C[n+]2cc(C=C)ccc2C)c1	> 100 µM
CCCC/C(=C\C1=C(C)C(=O)C(OC)=C(OC)C1=O)C(=O)O	> 100 µM
NCCNCC1CCNCC1	> 100 µM
S=c1[nH]c2ccc(Br)cc2c(=S)s1	63.7 µM
O=c1ccn(C2OC(CO)C(P(=O)(O)O)C2O)c(=O)[nH]1 (centres undefined)	> 100 µM
CCC1CN2CCc3cc(OC)c(OC)cc3C2CC1CC1c2cc(OC)c(OC)cc2CCN1C(=O)C1CCCN1 (centres undefined)	58.6 µM
O=C1CC(C(O)(C(F)(F)F)C(F)(F)Cl)CCC1C(O)(C(F)(F)F)C(F)(F)Cl (centres undefined)	> 10 µM
CCOC(=O)NC(=O)c1cn(C(CC)COC(=O)NCCCCCCNC(=O)OCC(CC)n2cc(C(=O)NC(=O)OCC)c(=O)[nH]c2=O)c(=O)[nH]c1=O (centres undefined)	> 100 µM
Cc1cn(-c2cc(C(=O)Nc3cccc(-n4ccc5c(NC(=O)c6ccccc6)nccc54)c3)cc(C(F)(F)F)c2)cn1	4.79 µM
CC(=O)O[C@H]1C(=O)[C@@]2(C)[C@H]([C@H](OC(=O)c3ccc(F)cc3)[C@]3(O)C[C@H](OC(=O)[C@H](O)[C@@H](NC(=O)c4ccccc4)c4ccccc4)C(C)=C1C3(C)C)[C@]1(OC(C)=O)CO[C@@H]1C[C@@H]2O	0.174 µM
COc1ccc(-c2ccc3c(N4CCOC[C@@H]4C)nc(N4CCOC[C@@H]4C)nc3n2)cc1CO	3.21 µM
ClC(Cl)=C1C(=C(Cl)Cl)C(Cl)(Cl)C1(Cl)Cl	13.7 µM
O=C(c1ccco1)c1c(C(F)(F)F)n([O-])c2ccc(C(F)(F)F)cc2[n+]1=O	2.5 µM
N[C@H](CCC(=O)N[C@@H](Cc1c[nH]c2ccccc12)C(=O)O)C(=O)O	> 100 µM
COC(=O)/C([Se]c1c(C)cc(C)cc1C)=C(/[Se]c1c(C)cc(C)cc1C)C(=O)OC	> 100 µM
O=c1[nH]cnc2c1ncn2[C@@H]1C[C@@H]1CO	> 100 µM
O=[N+]([O-])c1ccc(/C=C/c2cc(-c3ccccc3)nc3ccc4ccccc4c23)cc1	> 100 µM
O=C1Sc2ccccc2C(=O)N2CSCC12 (centres undefined)	> 100 µM
CCc1ccc2c(c1)C(=O)c1c-2n(CCCN=[N+]=[N-])c(=O)c2cc([N+](=O)[O-])ccc12	> 50 µM

----------
system: T-47D breast; assay: NCI tumour cell line growth inhibition, 48 h
readout type: TGI

                                    compound  subject_of_test  obs_value
 0           ClCCN(CCCl)c1ccc(CNc2ccccc2)cc1     T-47D breast   > 100 µM
 1  CO[C@H]1Nc2c(ccc(C)c2O)C(=O)N2C=C(/C=C/C(N)=O)C[C@@H]12     T-47D breast  > 7.99 µM
 2          CCN(CC)CCCCCCNc1cccc2cc(Br)cnc12     T-47D breast      20 µM
 3         COc1cc2c(/C=N\N=C(N)N)c[nH]c2cc1C     T-47D breast    27.9 µM
 4      c1ccc2c(c1)c1c(n2CCOCCN2CCOCC2)CCCC1     T-47D breast   > 100 µM
 5  COc1cc(-c2cc(=O)c3cc4c(=O)cc(-c5cc(OC)c(OC)c(OC)c5)oc4cc3o2)cc(OC)c1OC     T-47D breast   > 100 µM
 6  O=C(Nc1cc(Nc2ncccc2-c2ncnc3nc[nH]c23)ccc1F)c1cc(C(F)(F)F)cc(C(F)(F)F)c1     T-47D breast    > 10 µM
 7  O=C1NCC(NC(=O)C(F)(F)F)c2c(Br)sc(Br)c21 (configuration not stated)     T-47D breast   > 100 µM
 8  N#CC(N=Nc1ccc(Cl)cc1)c1nc2ccccc2o1 (configuration not stated)     T-47D breast   > 100 µM
 9  COC(=O)c1cc2c(cc1CC1Cc3cc4c(cc3C1)CCC4)CCC2     T-47D breast   > 100 µM
10                      CCOC(CNCCC(=O)OC)OCC     T-47D breast    > 10 µM
11  COc1ccc(-c2nc(-c3cc(OC)cc(OC)c3)[nH]c2-c2ccc(OC)cc2)cc1     T-47D breast    9.25 µM

----------
test system: DU-145 prostate; assay: NCI tumour cell line growth inhibition, 48 h; in the data active means GI50 below about 0.43 µM; inactive means the rest
Classes used: class 1 for active, class 0 for inactive

In [3]: df
Out[3]:
                                    compound    class
 0  c1coc(-c2c3ccc(=[N+]4CCCCC4)cc-3oc3cc(N4CCCCC4)ccc23)c1  class 1
 1  CC(C)[C@H](O)C(=O)N[C@@H](C)C(=O)N[C@@H]1C(=O)N(C)CCc2ccccc21  class 0
 2           ClCCN(CCCl)c1ccc(CNc2ccccc2)cc1  class 0
 3  O=C1c2ccccc2-c2c1c1ccccc1c(=O)n2CCN1CCNCC1  class 0
 4  COc1cc2c(Nc3cc(Cl)c(OC)c(Cl)c3)c(C#N)cnc2cc1OCCCN1CCN(C)CC1  class 0
 5  O=C(/C(=C\c1c(-c2ccccc2)[nH]c2ccccc12)S(=O)(=O)c1ccccc1)c1ccccc1  class 0
 6  CC1(C)CN=C(NN=C(/C=C/c2ccc(C(F)(F)F)cc2)/C=C/c2ccc(C(F)(F)F)cc2)NC1  class 0
 7  NNCCc1ccc(NC(=O)CCCc2ccc(C(=O)Nc3ccccc3N)cc2)cc1  class 0
 8      COc1ccc(-c2cnnn2-c2nonc2-n2cccc2)cc1  class 1
 9  Nc1cc(Br)c(-c2nnc(CCC(=O)c3nc4ccccc4[nH]3)o2)c(Br)c1  class 0
10  C#CCOc1cccc(Nc2ncnc3c(NC(=O)C=C)cccc23)c1  class 0
11  CC(C)CC(C/C=C1/CC(CO)(COC(=O)C(C)(C)C)OC1=O)CC(C)C (stereo unspecified)  class 0
12        N=C(N)c1ccc(-c2ccc(-c3cccs3)s2)cc1  class 0
13  COc1ccc(-c2nn(-c3cccc(Cl)c3)cc2-c2cc(-c3ccccc3)[nH]c(=O)c2C#N)cc1  class 0
14  CCCC/C(=C\C1=C(C)C(=O)C(OC)=C(OC)C1=O)C(=O)O  class 0
15  CCCc1cc(=O)n2c(C(=O)Nc3ccc(Cl)cc3C)c(C(=O)Nc3ccc(F)cc3)sc2n1  class 0
